src = the nanobody polyreactivity screen of Harvey et al. (2022)

assay: yeast display, Sf9 membrane polyspecificity reagent, FACS + sequencing; frameworks hold sequencing errors
MEASUREMENT_NAME: polyreactivity (PSR sort gate)

SEQUENCE_CONTENT: QVQLVESGGGLVQAGGSLRLSCAASGRTFALNALGWSRQAPGKERELVAAISWSSGRTYYADSVKGRFTISRDNAKNTVYLQMNSLKPEDTAVYYCAALVAHKGDYWGQGTQVTVSS
polyreactivity (PSR sort gate): high polyreactivity
--
SEQUENCE_CONTENT: QVQLEESGGGLVQAGGSLRLSCAASGSIFVYYARGWYRQAPGKERELVATISRRGGSTYYADSVKGRFTISRDNAKNTVYLQMTSLKPEDTAVDYCNAAPSPVGSARSSLTRYTGMDYWGQGTQVSVSS
polyreactivity (PSR sort gate): high polyreactivity
--
SEQUENCE_CONTENT: QVQLVESGGGLVQAGGSLRLSCAASGRTFAENAMGWYRQAPGKESELVAAISETGSRTYYADSVKGRFTISRDNAKNTVYLQMNSLKPEDTAVYYCAARSWHGVLWSYRHDYWGQGTQVTVSS
polyreactivity (PSR sort gate): low polyreactivity
--
SEQUENCE_CONTENT: QVQLVESGGGLVQAGGSLRLSCASSGLTFHFYTMGWYRQAPGKERELVASITSGGITYYADSVKGRFTISRDNAKNTVYLQMNSLKPEDTAVYYCAATYQFIYTDFDYWGQGTQVTVSS
polyreactivity (PSR sort gate): high polyreactivity

Prompt line: Please report the recorded polyreactivity (PSR sort gate) for QVQLVESGGGLVQAGGSLRLSCPASGSIFDRYAMGWYRQAPGKERELVAAISWSDSRTYYADSVKGRFTISRDNAKNTVYFQMNSLKPEDTAVYYCAADGSTWGDYRTYGYWGQGTQVTVSS .
Response line: low polyreactivity

Prompt line: I am curious: what polyreactivity (PSR sort gate) value has been reported for QVQLGESGGGLVQAGGSLRLSCAASGRIFWGYAMGWYRQAPGKERELVAAITRGTRTNYADSVKGRFTISRDNAKNTVYLQMNSLKPEDTAVYYCAADYRDSYLFYYWGQGTQVTVSS ?
Response line: high polyreactivity
